// data source = ChEMBL document CHEMBL3860085

assay: Metal chelating activity assessed as compound-Fe2+ complex formation after 10 mins by UV-Vis spectrophotometer; assay type: physicochemical
Threshold-based label: EC50 under 20 µM gives yes, EC50 not under 20 µM gives no.

Use the examples below as a reference point.
{"columns": ["compound", "assigned_label"],
 "data": [
  ["CCOC(=O)C1=C(C[Se]C(=O)c2cccc(C(=O)[Se]CC3=C(C(=O)OCC)C(c4ccccc4)NC(=O)N3)c2)NC(=O)NC1c1ccccc1 (centres undefined)", "no"],
  ["Cc1ccc(C(=O)[Se]Cc2ccccc2)cc1", "no"],
  ["Cc1cc(C(C)(C)C)c(O)c(C(C)(C)C)c1 [BUTYLATED HYDROXYTOLUENE]", "no"],
  ["CCOC(=O)C1=C(C[Se]C(=O)c2ccc(C)cc2)NC(=O)NC1c1ccc(OC)cc1 (centres undefined)", "no"],
  ["CCOC(=O)C1=C(C[Se]C(=O)c2ccc(C)cc2)NC(=O)NC1c1ccc(N(C)C)cc1 (centres undefined)", "no"]
]}

Hello, is EC50 of the following compound strictly smaller than 20 µM? CCOC(=O)C1=C(C[Se]C(=O)c2ccc(C)cc2)NC(=O)NC1c1cccc2ccccc12 (centres undefined) no

Hello, is EC50 of the following compound strictly smaller than 20 µM? CCOC(=O)C1=C(C[Se]C(C)=O)NC(=O)NC1c1ccccc1 (centres undefined) no

Hello, is EC50 of the following compound strictly smaller than 20 µM? CCOC(=O)C1=C(C[Se]C(=O)c2ccc(C)cc2)NC(=O)NC1c1ccc(C)cc1 (centres undefined) no

Hello, is EC50 of the following compound strictly smaller than 20 µM? CCOC(=O)C1=C(C[Se]C(=O)c2ccc(C)cc2)NC(=O)NC1c1cccc([N+](=O)[O-])c1 (centres undefined) no

Hello, is EC50 of the following compound strictly smaller than 20 µM? CCOC(=O)C1=C(C[Se]C(=O)c2ccc(C)cc2)NC(=O)NC1c1ccc(O)c(OC)c1 (centres undefined) yes
